# assayComment: Cytotoxicity against human HepG2 cells assessed as reduction in cell viability incubated for 72 hrs by MTT assay
# Assay type: cell-based
# Lookup of reported CC50 at 72 h keyed by entry

| smilesRecord | CC50 at 72 h |
| --- | --- |
| CCCCNc1cc(=O)[nH]c2c([N+](=O)[O-])cccc12 | 12.2 µM |
| O=c1cc(Oc2ccccc2Br)c2cccc([N+](=O)[O-])c2[nH]1 | > 7.8 µM |
| O=c1cc(Sc2ccc(Cl)cc2Cl)c2cccc([N+](=O)[O-])c2[nH]1 | > 7.8 µM |
| O=c1cc(N2CCNCC2)c2cccc([N+](=O)[O-])c2[nH]1 | 2.4 µM |
| O=c1cc(Sc2ccccc2)c2cccc([N+](=O)[O-])c2[nH]1 | > 12.5 µM |
| O=c1cc(Oc2cccc(C(F)(F)F)c2)c2cccc([N+](=O)[O-])c2[nH]1 | > 7.8 µM |
| NCCOCCOCCNc1cc(=O)[nH]c2c([N+](=O)[O-])cccc12 | 123 µM |
| O=c1cc(Oc2ccc(Cl)cc2)c2cccc([N+](=O)[O-])c2[nH]1 | > 3.9 µM |
| CC(C)(C)OC(=O)NCCOCCOCCNc1cc(=O)[nH]c2c([N+](=O)[O-])cccc12 | 34.8 µM |
| O=c1cc(Sc2ccccc2C(F)(F)F)c2cccc([N+](=O)[O-])c2[nH]1 | > 7.8 µM |
| O=c1cc(Sc2ccc(C(F)(F)F)cc2)c2cccc([N+](=O)[O-])c2[nH]1 | > 12.5 µM |
| O=c1cc(N2CCOCC2)c2cccc([N+](=O)[O-])c2[nH]1 | 86.2 µM |
| Cc1cc(Oc2cc(=O)[nH]c3c([N+](=O)[O-])cccc23)ccc1Cl | > 15.6 µM |
| O=c1cc(Sc2ccccc2Cl)c2cccc([N+](=O)[O-])c2[nH]1 | > 1.25 µM |
| O=c1cc(Nc2ccccc2)c2cccc([N+](=O)[O-])c2[nH]1 | 1.8 µM |
| O=c1cc(Sc2ccc(Br)cc2)c2cccc([N+](=O)[O-])c2[nH]1 | > 3.9 µM |
| O=c1cc(Oc2ccc(C(F)(F)F)cc2)c2cccc([N+](=O)[O-])c2[nH]1 | > 7.8 µM |
| O=c1cc(Oc2ccccc2C(F)(F)F)c2cccc([N+](=O)[O-])c2[nH]1 | > 15.6 µM |
| Nc1cc(=O)[nH]c2c([N+](=O)[O-])cccc12 | > 125 µM |
| Cc1ccc(Oc2cc(=O)[nH]c3c([N+](=O)[O-])cccc23)cc1 | > 25 µM |
| O=c1cc(Oc2ccccc2)c2cccc([N+](=O)[O-])c2[nH]1 | > 12.5 µM |

###

# Tested on: Leishmania donovani
# assayComment: Antileishmanial activity against Leishmania donovani MHOM/IN/00/DEVI intracellular amastigotes infected in human THP1 cells assessed as reduction in parasite-infected macrophages incubated for 120 hrs by Giemsa staining based microscopy
# Type: functional, organism-based
# conditionParameters: THP-1, 120 h

| compound | assayTarget | IC50 |
| --- | --- | --- |
| N=C(N)c1ccc(OCCCCCOc2ccc(C(=N)N)cc2)cc1 [PENTAMIDINE] | Leishmania donovani | > 20 µM |
| Cc1ccc(Oc2cc(=O)[nH]c3c([N+](=O)[O-])cccc23)cc1 | Leishmania donovani | > 12.5 µM |
| O=c1cc(Sc2ccc(C(F)(F)F)cc2)c2cccc([N+](=O)[O-])c2[nH]1 | Leishmania donovani | > 12.5 µM |
